// provenance: paper PMC2756588

- SUBJECT OF TEST: Bem1-2, P29366
- Sequence (P29366 139-227): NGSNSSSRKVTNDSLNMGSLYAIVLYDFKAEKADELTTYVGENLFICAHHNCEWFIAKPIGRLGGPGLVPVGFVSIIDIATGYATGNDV
- TEST DESCRIPTION: SPOT array
- RUN PARAMETERS: median of control spots 4347

>  <BINDER>
VPPPMQPPPIESSNL

>  <SPOT intensity>
0

$$$$
>  <BINDER>
NQARKPFLLPATELS

>  <SPOT intensity>
1

$$$$
>  <BINDER>
LLGRKRPVMERVVDI

>  <SPOT intensity>
0

$$$$
>  <BINDER>
LYKRKPILLPDPKPL

>  <SPOT intensity>
0

$$$$
>  <BINDER>
KLSRGRYGLPLSSRP

>  <SPOT intensity>
0

$$$$
>  <BINDER>
STPQTMRQAPKRPDA

>  <SPOT intensity>
2

$$$$
>  <BINDER>
PPIPNAPLSPAPAVP

>  <SPOT intensity>
0

$$$$
